Measurement Target: human 11β-HSD1 (Homo sapiens, UniProt P28845)
Construct: expressed in transfected cells; host or cells: CHO cells (microsomes)
Sequence (P28845 whole entry): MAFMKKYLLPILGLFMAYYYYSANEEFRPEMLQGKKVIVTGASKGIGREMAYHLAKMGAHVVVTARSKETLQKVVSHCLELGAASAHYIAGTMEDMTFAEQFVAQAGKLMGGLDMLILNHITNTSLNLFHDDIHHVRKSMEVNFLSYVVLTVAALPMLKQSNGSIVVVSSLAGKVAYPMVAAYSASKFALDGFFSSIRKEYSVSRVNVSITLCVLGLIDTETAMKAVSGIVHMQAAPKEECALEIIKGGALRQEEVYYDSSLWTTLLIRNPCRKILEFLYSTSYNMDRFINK
Test Description: Inhibition of a microsomal preparation of 11β-HSD1 (SPA), Biological Test Example 1
Assay type: biochemical
Test Parameters: read-out: Average % inhibition at 100 nM, 100 nM; microsomes from CHO cells overexpressing human 11β-HSD1
Assay Endpoint: inhibition at 0.1 µM (%)

1. C[C@@H](c1ccc(-c2ccn(C3CC3)c(=O)c2)cc1)N1CCC[C@](CC(C)(C)O)(c2ccccc2)NC1=O 94.2
2. C[C@@H](c1ccc(Br)cc1)N1CCC[C@](CCCO)(c2ccccc2)NC1=O 95.6
3. C=C(C)C[C@]1(c2ccccc2)CCCN([C@@H](C)c2ccc(Br)cc2)C(=O)N1 93
4. COc1ccc(-c2ccc([C@H](C)N3CCC[C@](CCO)(c4ccccc4)NC3=O)cc2)cn1 95.5
